Target: T1, Cynomolgus CXCR2 (cynomolgus, UniProt Q28519 3-353 (rhesus entry))
T1 chain: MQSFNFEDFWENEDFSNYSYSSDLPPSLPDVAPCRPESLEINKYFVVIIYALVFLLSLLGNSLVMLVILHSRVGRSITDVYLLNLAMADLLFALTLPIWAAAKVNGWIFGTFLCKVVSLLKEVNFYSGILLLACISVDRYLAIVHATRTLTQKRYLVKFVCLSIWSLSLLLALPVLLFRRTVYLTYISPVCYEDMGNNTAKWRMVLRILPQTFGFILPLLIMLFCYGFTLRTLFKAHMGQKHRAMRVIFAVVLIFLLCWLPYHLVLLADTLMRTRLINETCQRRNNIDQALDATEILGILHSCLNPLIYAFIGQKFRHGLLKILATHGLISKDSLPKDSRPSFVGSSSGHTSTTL
Experiment: cell-based or functional assay
attribute-measured: FLIPR IC50, GRO-α induced intracellular calcium release (nM)

binder	unit-name	observed-value
CXCR20027 (bispecific antibody, not shown: small tags and cut ends) EVQLVESGGGLVQPGGSLRLSCVASGRIFSSNAMGWFRQAPGKEREFVAAITWRSGGSAYYADSAKGRFTISRDNAKNTVYLQMNSLKPEDTAVYYCAAGGSSWLSFPPDYWGQGTQVTVSSGGGGSGGGGSGGGGSGGGGSGGGGSGGGGSGGGGSEVQLVESGGGLVQAGGSLRLSCAASGRTFSDYAMGWFRQAPGKEREFVAAITWNGGRVFYTASVKGRFTISRDNAKNTMYLQMNSLKPEDTAVYYCAADKDRRTDYLGHPVAYWGQGTQVTVSS	nM	12.7
CXCR20035 (other, not shown: small tags and cut ends) EVQLVESGGGLVQAGGSLTLSCAVSGSTFRINTMGWYRRAPGKQRELVAARDRGGYINYVDSVKGRFTVSRDNAKPTMYLQMNSLKPEDTAVYYCHAGTQDRTGRNFDRWGQGTQVTVSSGGGGSGGGGSGGGGSGGGGSGGGGSGGGGSGGGGSEVQLVESGGGLVQPGGSLRLSCVASGRIFSSNAMGWFRQAPGKEREFVAAITWRSGGSAYYADSAKGRFTISRDNAKNTVYLQMNSLKPEDTAVYYCAAGGSSWLSFPPDYWGQGTQVTVSS	nM	8.72
CXCR20025 (bispecific antibody, not shown: small tags and cut ends) EVQLVESGGGLVQAGGSLRLSCAASGRTFSDYAMGWFRQAPGKEREFVAAITWNGGRVFYTASVKGRFTISRDNAKNTMYLQMNSLKPEDTAVYYCAADKDRRTDYLGHPVAYWGQGTQVTVSSGGGGSGGGGSGGGGSGGGGSGGGGSGGGGSGGGGSEVQLVESGGGLVQAGESLRLSCAASGSTFDFKVMGWYRQPPGKQREGVAAIRLSGNMHYAESVKGRFTISKANAKNTVYLQMNSLRPEDTAVYYCKVNIRGQDYWGQGTQVTVSS	nM	7.88
CXCR20016 (other, not shown: small tags and cut ends) EVQLVESGGGLVQPGGSVRLSCVASGIIFRLSALGWTRQGPGKAREWVAGINSDGTTNYADPVKGRFTISRDNAKNTIYLHMDMLKPEDTAVYYCASGKYRGQGTQVTVSSGGGGSGGGGSGGGGSGGGGSGGGGSGGGGSGGGGSEVQLVESGGELVQPGGSLRLSCAASGSILTINAMGWYRQAPGKQRELVVRRTRGGSTTYQDSVKGRFTISADIAKKTMYLQMNSLKPEDTAVYYCMLDDRGGVYWGQGTQVTVSS	nM	1100
CXCR20014 (bispecific antibody, not shown: small tags and cut ends) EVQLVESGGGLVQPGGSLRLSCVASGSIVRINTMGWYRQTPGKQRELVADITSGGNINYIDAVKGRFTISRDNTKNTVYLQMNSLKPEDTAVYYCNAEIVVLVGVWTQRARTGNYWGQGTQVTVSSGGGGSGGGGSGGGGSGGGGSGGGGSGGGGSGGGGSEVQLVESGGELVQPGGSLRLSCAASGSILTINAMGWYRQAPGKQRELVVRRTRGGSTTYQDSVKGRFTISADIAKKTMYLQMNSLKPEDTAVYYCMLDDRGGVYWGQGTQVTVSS	nM	13.7
CXCR20030 (other, not shown: small tags and cut ends) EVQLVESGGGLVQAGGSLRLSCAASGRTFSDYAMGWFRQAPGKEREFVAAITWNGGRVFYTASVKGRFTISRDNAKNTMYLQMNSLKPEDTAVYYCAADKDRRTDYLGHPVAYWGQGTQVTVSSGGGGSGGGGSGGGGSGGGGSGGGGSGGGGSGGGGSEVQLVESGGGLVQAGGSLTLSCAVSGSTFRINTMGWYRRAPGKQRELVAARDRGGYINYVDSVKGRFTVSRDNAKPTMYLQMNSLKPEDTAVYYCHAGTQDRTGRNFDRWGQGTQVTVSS	nM	6.36
CXCR20015 (other, not shown: small tags and cut ends) EVQLVESGGELVQPGGSLRLSCAASGSILTINAMGWYRQAPGKQRELVVRRTRGGSTTYQDSVKGRFTISADIAKKTMYLQMNSLKPEDTAVYYCMLDDRGGVYWGQGTQVTVSSGGGGSGGGGSGGGGSGGGGSGGGGSGGGGSGGGGSEVQLVESGGGLVQPGGSVRLSCVASGIIFRLSALGWTRQGPGKAREWVAGINSDGTTNYADPVKGRFTISRDNAKNTIYLHMDMLKPEDTAVYYCASGKYRGQGTQVTVSS	nM	2870
CXCR20022 (VHH, not shown: small tags and cut ends) EVQLVESGGGLVQAGGSLRLSCAASGRTFSDYAMGWFRQAPGKEREFVAAITWNGGRVFYTASVKGRFTISRDNAKNTMYLQMNSLKPEDTAVYYCAADKDRRTDYLGHPVAYWGQGTQVTVSSGGGGSGGGGSGGGGSGGGGSGGGGSGGGGSGGGGSEVQLVESGGGLVQAGGSLRLSCAASGRTFSDYAMGWFRQAPGKEREFVAAITWNGGRVFYTASVKGRFTISRDNAKNTMYLQMNSLKPEDTAVYYCAADKDRRTDYLGHPVAYWGQGTQVTVSS	nM	8.64
CXCR20034 (bispecific antibody, not shown: small tags and cut ends) EVQLVESGGGLVQAGGSLRLSCAASGRTFSDYAMGWFRQAPGKEREFVAAITWNGGRVFYTASVKGRFTISRDNAKNTMYLQMNSLKPEDTAVYYCAADKDRRTDYLGHPVAYWGQGTQVTVSSGGGGSGGGGSGGGGSGGGGSGGGGSGGGGSGGGGSEVQLVESGGELVQPGGSLRLSCAASGSILTINAMGWYRQAPGKQRELVVRRTRGGSTTYQDSVKGRFTISADIAKKTMYLQMNSLKPEDTAVYYCMLDDRGGVYWGQGTQVTVSS	nM	9.47
